Recorded measurements of pIC50, one per entry
Target: UniProt:P27487
Sequence (P27487 whole entry): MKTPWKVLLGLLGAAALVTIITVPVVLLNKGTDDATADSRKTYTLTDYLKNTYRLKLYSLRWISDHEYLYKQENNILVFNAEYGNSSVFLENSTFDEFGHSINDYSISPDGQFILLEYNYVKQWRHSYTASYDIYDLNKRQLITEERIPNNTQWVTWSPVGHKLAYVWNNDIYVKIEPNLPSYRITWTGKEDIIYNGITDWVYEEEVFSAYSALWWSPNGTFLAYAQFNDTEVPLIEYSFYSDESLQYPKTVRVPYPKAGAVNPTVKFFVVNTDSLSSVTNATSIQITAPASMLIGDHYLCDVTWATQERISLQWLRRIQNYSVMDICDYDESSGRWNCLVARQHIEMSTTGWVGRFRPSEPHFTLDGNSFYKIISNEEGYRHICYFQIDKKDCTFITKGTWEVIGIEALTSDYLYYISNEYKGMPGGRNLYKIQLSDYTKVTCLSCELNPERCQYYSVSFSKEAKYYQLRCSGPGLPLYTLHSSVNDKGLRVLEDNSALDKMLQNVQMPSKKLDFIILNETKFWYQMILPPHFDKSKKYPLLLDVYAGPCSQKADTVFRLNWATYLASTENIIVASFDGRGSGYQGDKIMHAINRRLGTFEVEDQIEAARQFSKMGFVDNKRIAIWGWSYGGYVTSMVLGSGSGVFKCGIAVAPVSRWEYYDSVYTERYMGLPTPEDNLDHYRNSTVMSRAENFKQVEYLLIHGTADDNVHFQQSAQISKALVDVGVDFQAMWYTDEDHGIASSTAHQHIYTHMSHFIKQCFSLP
Experiment: biochemical
pIC50: −log10 of the molar value.
Readout name: pIC50

Molecule: O=C(O)CSc1ncc(S(=O)(=O)NC(=S)Nc2ccccc2)c(=O)[nH]1 [Compound 5a]
Readout name: pIC50
Obs value: 6.24

Molecule: Cc1ccc(NC(=S)NS(=O)(=O)c2cnc(SCC(=O)O)[nH]c2=O)cc1 [Compound 5b]
Readout name: pIC50
Obs value: 6.20

Molecule: O=C(Nc1ccccc1)NS(=O)(=O)c1cnc(N/N=C/c2ccccc2)[nH]c1=O [Compound 8c]
Readout name: pIC50
Obs value: 6.33

Molecule: O=C(Nc1ccccc1)NS(=O)(=O)C1=CNC2SC(=O)CN2C1=O (centres unmarked) [Compound 4c]
Readout name: pIC50
Obs value: 6.38

Molecule: Cc1ccc(NC(=O)NS(=O)(=O)C2=CNC3SC(=O)CN3C2=O)cc1 (centres unmarked) [Compound 4d]
Readout name: pIC50
Obs value: 5.88

Molecule: O=c1[nH]c(N/N=C/c2ccccc2)ncc1S(=O)(=O)NC(=S)Nc1ccccc1 [Compound 8a]
Readout name: pIC50
Obs value: 6.98

Molecule: O=C(O)CSc1ncc(S(=O)(=O)NC(=O)Nc2ccccc2)c(=O)[nH]1 [Compound 5c]
Readout name: pIC50
Obs value: 6.54

Molecule: NNc1ncc(S(=O)(=O)NC(=O)Nc2ccccc2)c(=O)[nH]1 [Compound 6c]
Readout name: pIC50
Obs value: 6.58

Data provenance is paper PMC9364673.
